System: HCT-15 colon
Assay: NCI-60 one-dose screen, 48 h
Conditions: 10 µM
About 83,000 compounds went through this panel and 20% of them were active in at least one assay; those are over-represented in the sample as a whole. The source made the active and inactive calls. How the source made its calls: active means growth percent below 10; inactive means the rest.
The categories you may choose from are active, inactive

What is the recorded call for this compound in the test? CC(=O)O[C@@H]1C[C@H]2O[C@@H]3C=C(C)CC[C@]3(C)[C@]1(C)[C@]21CO1
active

What is the recorded call for this compound in the test? COc1cc2c(cc1OC)[C@@H]1N(CC2)C(=O)c2ccccc2[C@@]1(C)C(=O)O
inactive

What is the recorded call for this compound in the test? CC1=C[C@H]2O[C@@H]3C[C@@H](O)[C@](C)([C@@]2(C)CC1)[C@@]31CO1
inactive

What is the recorded call for this compound in the test? CN1C(=O)[C@]23SSC1(C)C(=O)N2[C@H]1Nc2ccccc2C1([C@@]12c4ccccc4N[C@@H]1N1C(=O)C4(C)SS[C@]1(C(=O)N4C)[C@H]2O)[C@@H]3O (stereo not given in full)
active

What is the recorded call for this compound in the test? CN(CCF)/N=N/c1nc[nH]c1C(N)=O
inactive

###

Tested on: HS 578T breast
Assay: NCI-60 one-dose screen, 48 h
Conditions: 10 µM
Compounds without any hit were thinned out: in the full panel of roughly 83,000, 20% have a hit. The source made the active and inactive calls. Rule for the calls: active = growth percent below 10; inactive = the rest.
The categories you may choose from are active, inactive

What is the recorded call for this compound in the test? O=C(CCCc1ccc(N(CCCl)CCCl)cc1)OCc1ccccc1
inactive

What is the recorded call for this compound in the test? CN(CCF)/N=N/c1nc[nH]c1C(N)=O
inactive

What is the recorded call for this compound in the test? COc1cc2c(O[C@@H]3OC[C@H](OC(C)=O)[C@H](OC(C)=O)[C@H]3O)c3c(c(-c4ccc5c(c4)OCO5)c2cc1OC)C(=O)OC3
inactive

What is the recorded call for this compound in the test? CC1=C(CCC=NNC(N)=O)C2=C(C)C3(CC3)[C@@](C)(O)C(=O)C2=C1
active

What is the recorded call for this compound in the test? CC1=C[C@H]2O[C@@H]3C[C@H]4OC(=O)/C=C\C=C\[C@H]([C@@H](C)O)OCC/C(C)=C/C(=O)OC[C@@]2(CC1)[C@]4(C)[C@]31CO1
active

What is the recorded call for this compound in the test? NC1CCc2cc(O)c(O)cc2C1 (configuration not stated)
inactive

What is the recorded call for this compound in the test? CC1=C[C@H]2O[C@@H]3C[C@@H](O)[C@](C)([C@@]2(C)CC1)[C@@]31CO1
inactive

What is the recorded call for this compound in the test? CC(=O)O[C@@H]1[C@@H]2O[C@H]2[C@@](C)(O)C(=O)[C@@H](C)C/C=C/[C@H]2[C@@H]3O[C@]3(C)[C@@H](C)C3[C@H](Cc4ccccc4)NC(=O)[C@@]312 (some centres not stated)
active

What is the recorded call for this compound in the test? CC1=C2C(=C[C@@](C)(C=O)[C@@H]2O)C(=O)[C@](C)(O)C12CC2
inactive

What is the recorded call for this compound in the test? CC(C)=CCc1c2c(c(O)c3c1O[C@]14C(=C[C@@H]5C[C@H]1C(C)(C)O[C@@]4(C/C=C(/C)C(=O)O)C5=O)C3=O)C=CC(C)(C)O2
active

What is the recorded call for this compound in the test? COc1cc(OC)c(S(=O)(=O)N(CCCl)CCCl)cc1C(=O)/C=C/c1ccc(Cl)cc1
inactive

What is the recorded call for this compound in the test? CC1=C2C(=C[C@@](C)(COC(=O)c3ccc(S(=O)(=O)F)cc3)[C@@H]2OC(=O)c2ccc(S(=O)(=O)F)cc2)C(=O)[C@](C)(O)C12CC2
inactive

What is the recorded call for this compound in the test? C=C1[C@@H](C)C2[C@H](Cc3ccccc3)NC(=O)[C@]23[C@H](OC(C)=O)/C=C/[C@@](C)(O)C(=O)[C@@H](C)C/C=C/[C@H]3[C@@H]1O (some centres not stated)
active

What is the recorded call for this compound in the test? COC1[C@@H]2C[C@H]3C(C)(C)O[C@@](C/C=C(/C)C(=O)O)(C2=O)[C@]32Oc3c(CC=C(C)C)c4c(c(O)c3C(=O)[C@H]12)C=CC(C)(C)O4 (some centres not stated)
inactive

What is the recorded call for this compound in the test? N#Cc1nc(-c2ccccc2)oc1N1CCC(S(=O)(=O)F)CC1
inactive

What is the recorded call for this compound in the test? Cc1ccc(CNc2nc3ccc(OC/C(=C/F)CN)cc3o2)cn1
inactive

What is the recorded call for this compound in the test? CC1=C2C(=C[C@@](C)(COC(=O)c3ccc(S(=O)(=O)F)cc3)[C@@H]2O)C(=O)[C@](C)(O)C12CC2
active

###

Please provide measured growth for the entries that follow.
System: K-562 leukemia
Test: NCI-60 one-dose screen, 48 h (100 = growth as untreated, 0 = no growth, -100 = all killed)
Conditions: 10 µM
About 83,000 compounds went through this panel and 20% of them were active in at least one assay; those are over-represented in the sample as a whole.
Hi! Could you send only the number? It should be in %, unit omitted.

What value of growth has been recorded for this entry: NC1CCc2cc(O)c(O)cc2C1 (stereo not drawn)
1.68

What value of growth has been recorded for this entry: CC1=C(CN(O)C(N)=O)C2=C(C)C3(CC3)[C@@](C)(O)C(=O)C2=C1
95.4

What value of growth has been recorded for this entry: C=C1[C@@H](C)C2[C@H](Cc3ccccc3)NC(=O)[C@]23[C@H](OC(C)=O)/C=C/[C@@](C)(O)C(=O)[C@@H](C)C/C=C/[C@H]3[C@@H]1O (stereo partly drawn)
76.1

What value of growth has been recorded for this entry: CC(=O)O[C@@H]1C[C@H]2O[C@@H]3C=C(C)CC[C@]3(C)[C@]1(C)[C@]21CO1
4.68

What value of growth has been recorded for this entry: CN(CCF)/N=N/c1nc[nH]c1C(N)=O
22.2

What value of growth has been recorded for this entry: CN1C(=O)[C@]23SSC1(C)C(=O)N2[C@H]1Nc2ccccc2C1([C@@]12c4ccccc4N[C@@H]1N1C(=O)C4(C)SS[C@]1(C(=O)N4C)[C@H]2O)[C@@H]3O (stereo partly drawn)
2.18

What value of growth has been recorded for this entry: CC1=C(CN(O)C(N)=O)C2=C(C)C3(CC3)[C@](C)(O)C(=O)C2=C1
0.207

What value of growth has been recorded for this entry: COC(=O)[C@H]1[C@@H](O)[C@@]2(O)c3c(OC)cc(OC)cc3O[C@@]2(c2ccc(OC)cc2)[C@@H]1c1ccccc1
2.1

###

System: MOLT-4 leukemia
Assay: NCI-60 one-dose screen, 48 h (100 = growth as untreated, 0 = no growth, -100 = all killed)
Conditions: 10 µM
The panel holds about 83,000 compounds, 20% with a hit somewhere; the sample as a whole holds those more often. Activity calls are given as the source filed them. How the source made its calls: active means growth percent below 10; inactive means the rest.
ASSAY METRIC: growth

What value of growth has been recorded for this entry: CC(C)(O)/C=C/C(=O)[C@](C)(O)[C@H]1[C@H](O)C[C@@]2(C)[C@H]3CC=C4[C@@H](C[C@H](O)C(=O)C4(C)C)[C@]3(C)C(=O)C[C@]12C
24.8% (inactive)

What value of growth has been recorded for this entry: N#Cc1nc(-c2ccccc2)oc1N1CCC(S(=O)(=O)F)CC1
94.3% (inactive)

What value of growth has been recorded for this entry: CC1=C(CN(O)C(N)=O)C2=C(C)C3(CC3)[C@](C)(O)C(=O)C2=C1
76.2% (inactive)

What value of growth has been recorded for this entry: CC1=C[C@H]2O[C@@H]3C[C@H]4OC(=O)/C=C\C=C\[C@H]([C@@H](C)O)OCC/C(C)=C/C(=O)OC[C@@]2(CC1)[C@]4(C)[C@]31CO1
-18.5% (active)

What value of growth has been recorded for this entry: CC1=C2C(=C[C@@](C)(COC(=O)c3ccc(S(=O)(=O)F)cc3)[C@@H]2OC(=O)c2ccc(S(=O)(=O)F)cc2)C(=O)[C@](C)(O)C12CC2
23.4% (inactive)

What value of growth has been recorded for this entry: COc1cc(OC)c(S(=O)(=O)N(CCCl)CCCl)cc1C(=O)/C=C/c1ccc(Cl)cc1
58.8% (inactive)

###

Test system: SW-620 colon
Experiment: NCI-60 one-dose screen, 48 h (100 = growth as untreated, 0 = no growth, -100 = all killed)
Conditions: 10 µM
Protocol: Growth inhibition of the SW-620 human tumor cell line is measured as a screen for anti-cancer activity. Cells are grown in 96 well plates and exposed to the test compound for 48 hours. Compounds are tested at a single concentration, which is 10^-5 M for most compounds. The reported endpoint is percent growth (GI% or GIPRCNT), where numbers from 0 - 100% represent growth inhibition, and numbers from -100% - 0 represent cell death. For example, a value of 40 represents 60% growth inhibition. […]
This is part of a sample that, as a whole, favours compounds with a hit. Of some 83,000 tested, about 20% had one in any assay.
// thresholds for growth classes: low (below 10%), medium (10% to below 70%), high (70% or more)

Which class holds CC(C)(O)/C=C/C(=O)[C@](C)(O)[C@H]1[C@H](O)C[C@@]2(C)[C@H]3CC=C4[C@@H](C[C@H](O)C(=O)C4(C)C)[C@]3(C)C(=O)C[C@]12C ?
medium

Which class holds Cc1ccc(CNc2nc3ccc(OC/C(=C/F)CN)cc3o2)cn1 ?
high

Which class holds CN1C(=O)[C@]23SSC1(C)C(=O)N2[C@H]1Nc2ccccc2C1([C@@]12c4ccccc4N[C@@H]1N1C(=O)C4(C)SS[C@]1(C(=O)N4C)[C@H]2O)[C@@H]3O (stereo partly specified) ?
low

Which class holds COc1cc2c(O[C@@H]3OC[C@H](OC(C)=O)[C@H](OC(C)=O)[C@H]3O)c3c(c(-c4ccc5c(c4)OCO5)c2cc1OC)C(=O)OC3 ?
medium

Which class holds COC(=O)[C@H]1[C@@H](O)[C@@]2(O)c3c(OC)cc(OC)cc3O[C@@]2(c2ccc(OC)cc2)[C@@H]1c1ccccc1 ?
low

Which class holds CC1=C(CN(O)C(N)=O)C2=C(C)C3(CC3)[C@@](C)(O)C(=O)C2=C1 ?
high

Which class holds C/C=C\C(=O)O[C@@H]1CC2O[C@@H]3C=C(C)C(=O)C[C@]3(C)[C@]1(C)[C@]21CO1 ?
low

Which class holds C=C1[C@@H](C)C2[C@H](Cc3ccccc3)NC(=O)[C@]23[C@H](OC(C)=O)/C=C/[C@@](C)(O)C(=O)[C@@H](C)C/C=C/[C@H]3[C@@H]1O (stereo partly specified) ?
high

Which class holds COc1cccc2c1cc([N+](=O)[O-])c1c(C(=O)O)cc3c(c12)OCO3 ?
high

Which class holds C[C@@H]1CCC/C=C/[C@H]2C[C@@H](O)C[C@@H]2[C@@H](O)/C=C/C(=O)O1 ?
medium

Which class holds CC1=C2C(=C[C@@](C)(COC(=O)c3ccc(S(=O)(=O)F)cc3)[C@@H]2O)C(=O)[C@](C)(O)C12CC2 ?
low

Which class holds COC1[C@@H]2C[C@H]3C(C)(C)O[C@@](C/C=C(/C)C(=O)O)(C2=O)[C@]32Oc3c(CC=C(C)C)c4c(c(O)c3C(=O)[C@H]12)C=CC(C)(C)O4 (stereo partly specified) ?
low

Which class holds O=C(CCCc1ccc(N(CCCl)CCCl)cc1)OCc1ccccc1 ?
high

Which class holds CC(=O)O[C@@H]1[C@@H]2O[C@H]2[C@@](C)(O)C(=O)[C@@H](C)C/C=C/[C@H]2[C@@H]3O[C@]3(C)[C@@H](C)C3[C@H](Cc4ccccc4)NC(=O)[C@@]312 (stereo partly specified) ?
medium

Which class holds CN(CCF)/N=N/c1nc[nH]c1C(N)=O ?
medium

Which class holds COc1cc2c(cc1OC)[C@@H]1N(CC2)C(=O)c2ccccc2[C@@]1(C)C(=O)O ?
high

Which class holds CC1=C(CCC=NNC(N)=O)C2=C(C)C3(CC3)[C@@](C)(O)C(=O)C2=C1 ?
medium

Which class holds CC(C)=CCc1c2c(c(O)c3c1O[C@]14C(=C[C@@H]5C[C@H]1C(C)(C)O[C@@]4(C/C=C(/C)C(=O)O)C5=O)C3=O)C=CC(C)(C)O2 ?
low

Which class holds CC1=C2C(=C[C@@](C)(COS(C)(=O)=O)[C@@H]2O)C(=O)[C@](C)(O)C12CC2 ?
medium

Values compiled from PubChem BioAssay (NCI).
